Target: T1, His-tagged human TIGIT (human, UniProt Q495A1 22-141)
T1 construct: SPR analyte; also called human TIGIT protein; not shown: His tag
T1 sequence: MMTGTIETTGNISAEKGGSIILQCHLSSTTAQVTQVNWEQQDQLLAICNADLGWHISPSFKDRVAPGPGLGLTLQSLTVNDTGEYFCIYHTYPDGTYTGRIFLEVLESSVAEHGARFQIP
Experiment: SPR experiment 1, IgG from HEK293 supernatant captured
I'd appreciate it if you could supply koff values for the items below.
Express the result in s⁻¹ but write the number alone.

Request: Specify measured koff for humanized TIGIT-6 antibody 6VH6.M1 + 6VL1 (antibody, V domains shown, Full-length IgG, tested as HEK293 supernatant) VH: QVQLVQSGAEVKKPGASVKVSCKASGYTFTENAMHWVRQAPGQRLEWIGGINPNNGGTSYNQQFKGRATLTVDTSASTAYMELSSLRSEDTAVYYCTRSSYYRYDLDYWGQGTTVTVSS VL: DIQMTQSPSSLSASVGDRVTITCKASQDVKTALAWYQQKPGKAPKLLIYSASYRYTGVPSRFSGSGSGTDFTFTISSLQPEDIATYYCHQHYTTPWTFGGGTKLEIK .
Response: 0.00026

Request: Entry humanized TIGIT-6 antibody 6VH6.M4 + 6VL1 (antibody, V domains shown, Full-length IgG, tested as HEK293 supernatant) VH: QVQLVQSGAEVKKPGASVKVSCKASGYTITENTMHWVRQAPGQRLEWIGGINPNQGGTSYSQKFQGRATLTVDTSASTAYMELSSLRSEDTAVYYCTRSSYYRYDLDYWGQGTTVTVSS VL: DIQMTQSPSSLSASVGDRVTITCKASQDVKTALAWYQQKPGKAPKLLIYSASYRYTGVPSRFSGSGSGTDFTFTISSLQPEDIATYYCHQHYTTPWTFGGGTKLEIK needs its koff filled in; supply it.
Response: 0.00015

Request: Look up and state reported koff for humanized TIGIT-6 antibody 6VH6 + 6VL1 (antibody, V domains shown, Full-length IgG, tested as HEK293 supernatant) VH: QVQLVQSGAEVKKPGASVKVSCKASGYTITENTMHWVRQAPGQRLEWIGGINPNNGGTSYNQQFKGRATLTVDTSASTAYMELSSLRSEDTAVYYCTRSSYYRYDLDYWGQGTTVTVSS VL: DIQMTQSPSSLSASVGDRVTITCKASQDVKTALAWYQQKPGKAPKLLIYSASYRYTGVPSRFSGSGSGTDFTFTISSLQPEDIATYYCHQHYTTPWTFGGGTKLEIK
Response: 0.00014
